- study-target: T1, human BACE1 ECD
- T1 construct: analyte of the Octet assay (200 nM) and enzyme of the first short substrate assay; also called human BACE1 extracellular domain
- T1 sequence (single chain, as listed by the source limits assumed): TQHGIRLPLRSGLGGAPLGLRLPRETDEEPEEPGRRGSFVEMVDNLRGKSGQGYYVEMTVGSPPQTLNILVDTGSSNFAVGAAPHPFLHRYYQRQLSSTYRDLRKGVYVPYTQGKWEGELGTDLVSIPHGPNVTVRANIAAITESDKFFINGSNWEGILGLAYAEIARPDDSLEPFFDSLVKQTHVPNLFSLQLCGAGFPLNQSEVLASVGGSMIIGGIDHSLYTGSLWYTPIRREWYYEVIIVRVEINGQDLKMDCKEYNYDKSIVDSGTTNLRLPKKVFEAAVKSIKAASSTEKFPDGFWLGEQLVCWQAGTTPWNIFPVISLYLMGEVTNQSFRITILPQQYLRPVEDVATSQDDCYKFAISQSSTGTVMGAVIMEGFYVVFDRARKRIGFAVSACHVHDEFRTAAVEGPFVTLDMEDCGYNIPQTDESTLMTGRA
- assay-procedure: Octet, pH 5.0;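 note: antibodies captured on anti-human capture sensor tips, dissociation monitored in PBS with BSA buffer, kinetics fitted with a one-to-one binding model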
parameter-measured: Kd (nM)
Form entry: value (nM) — number only.

6274 (antibody, V domains shown, anti-BACE1 IgG) VH: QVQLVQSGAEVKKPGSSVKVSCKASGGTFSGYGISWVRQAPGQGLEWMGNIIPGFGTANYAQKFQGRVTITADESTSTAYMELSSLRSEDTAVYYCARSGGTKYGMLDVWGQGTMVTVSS VL: EIVMTQSPATLSVSPGERATLSCRASQSVSSHLAWYQQKPGQAPRLLIYGASTRATGIPARFSGSGSGTEFTLTISSLQSEDFAVYYCQQLILWPPRTFGGGTKVEIK    0.53

Then this binder:
## Task Which Kd reading was recorded for the binder 6297 (antibody, V domains shown, anti-BACE1 IgG) VH: QLQLQESGPGLVKPSETLSLTCTVSGGPISSSSYYWGWIRQPPGKGLEWIGNIYYSGSTYYNPSLRGRVTISVDTSKNQFSLKLSSVTAADTAVYYCARLGHGYNYFDLWGRGTLVTVSS VL: EIVLTQSPATLSLSPGERATLSCRASQSVSSYLAWFQQKPGQAPRLLIYDASNRATGIPARFSGSGSGTDFTLTISSLEPEDFAVYYCQQVYVWPPRTFGGGTKVEIK ?
## Result 0.28
